B1: glmS ribozyme (parent)
chain: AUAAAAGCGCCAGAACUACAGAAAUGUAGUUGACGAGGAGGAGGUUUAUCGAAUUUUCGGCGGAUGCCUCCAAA

- Variants of: B1
- Measurement Notes: self-cleavage kobs at 2500 uM GlcN6P; higher = faster cleavage; RNA array
- Recorded Conditions: with glucosamine-6-phosphate
Fewer inactive variants are shown than the library holds.

| Biopolymer Sequence | Limit Sign | self-cleavage kobs at 2500 uM GlcN6P / s⁻¹ |
| --- | --- | --- |
| AUAAAAGCGCCAGUACUACAGAAAUGUAGUUGACGAGGAGGAGGUUGAUCGAAUUUUCGGCGGAUGCCUCCAAA | = | 0.000947 |
| AUAAAAGCGCCAGAACUACAGAAAUGUAGUUGACGAGGGGGAGGUUUAUCGAAUUUUCGGCGGUUGCCUCCAAA | = | 8.33e-05 |
| AUAAAAGCGCCAGAACUACAGAAAUGUAGUGGACGAGGAGGAGGGUUAUCGAAUUUUCGGCGGAUGCCUCCAAA | = | 0.00155 |
| AUAAAAGCGACAGAAGUACAGAAAUGUAGUUGACGAGGAGGAGGUUUAUAGAAUUUUGGGUGGAUGCCUCCAAA | = | 6.15e-05 |
| AUAAAAGCGCCAGACCUACAGAAAUGUAGUUGACGAGGAGGAGGUUUAUCGAAAUUUCGGCGGAUGCCUCCAAA | = | 0.00329 |
| AUAAAAGCGCCAAAACUACAGAAAUGUAGCUGACGAGGAGGAGGUUUAUCGAAUUUUCAGCGGAUGCCUCCAAA | < | 1e-05 |
| AUAAAAGCGCCAGAACUACAGAAAUGUAGUUGACGAGGAGGAGGUUUAUCGGAUGUUCGGCGUAUGCCUCCAAA | = | 0.000758 |
| AUAAAAGCGCCAGGACUACAGAAAUGUAGUUGACGAGGAGGAGGGUUAUCGAAUUUUCGGCGGAUGCCUCCAAA | = | 0.00864 |
| AUAAAAGCGCCAGAACUACAGAAAUGUAGCUGACGAGGAGGACGUUUAUCGAAUUUUCGGCGGAUGCCUCCAAA | < | 1e-05 |
| AUAAAAGCGCCAGAACUACAGAAAUGUAGUUGACGAGGAGGGGGUUUAUCGAAUUGUCGGCGGAUGCCUCCAAA | = | 0.0067 |
| AUAAAAGCGCCAGCACUACAGAAAUGUAGUUGACGAGGAGGAGGUGUAUCGAAUUUUCGGCGGAUGCCUACAAA | = | 0.000308 |
| AUAAAAGCGCCAGAACUACAGAAAUGUAGUUGACGAGGACGUGGUUUAUCGAAUUUUCGGCGGAUGCCUCCAAA | = | 4.68e-05 |
| AUAAAAGGGCCAGAACUACAGAAAUGUAGUUGACGAGGACGAGGUUUACCGAAUUUUCGGAGGAUGCCUCCAAA | < | 1e-05 |
| AUAAAAGCGCCAGAACUACAGAAAUGUAGCUGACGAGGAGGAGGUUUAUCGAGUUUUCGGCGGAUGCCUCCAAA | = | 0.000252 |
| AUAAAAGCGCCAGAAAUACAGAAAUGUAGCUGACGAGGAGGAGGUUUAUCGAAUUUUCGGCGGAUGCCUCCAAA | = | 2.62e-05 |
| AUAAAAGCGCCAGAACUACAGAAAUGUAGUUGACCAGGAGGAGGUUUAGCGAAUUUUCGGCGGAUGCCUCCAAA | < | 1e-05 |
| AUAAAAGCGCCGGAACUACAGAAAUGUAGUUGACGAGGAGGAGGUUUAUCGAAUUUUCGGCGGAUCCCUCCAAA | = | 5.86e-05 |
| AUAAAAUCGCCAGAACUACAGAAAUGUAGUUGACGAGGAGGAGGUUUAUCGAAUAUUCGGCGGAUGCCUCCAAA | < | 1e-05 |
| AUAAAUGCGCCAGAACUACAGAAAUGUAGUUGACGAGGAGGAGGUUUGUCGAAUUUUCGGCGGAUGCCUCCAAA | < | 1e-05 |
| AUAAAAGCGCCAGAACUACAGAAAUGUAGGUGACGAGGAGGAGGUAUAUCGAAUUUUCGGCGGAUCCCUCCAAA | = | 0.00038 |
| AUAAAAGCGCGAGAACUACAGAAAUGUAGUUGACGAGCAGGAGGUUUAUCGAAUUUUCGGCGGAUGCCUCCAAA | < | 1e-05 |
| AUAAAAGCGCCAGAACUACAGAAAUGUAGUUGCCGAGGAGGAGGUUUAUCGAAUUUUCGUCCGAUGCCUCCAAA | < | 1e-05 |
